measure: IC50

The observed IC50 for COCc1nn(Cc2ccc(Cn3ccccc3=O)cc2)cc1C(=O)NCc1nccc(OC)c1F when tested with UniProtKB P00747 stands at > 40 µM

====

- study.target: UniProtKB P03951
- Sequence (P03951 19-387 limits assumed): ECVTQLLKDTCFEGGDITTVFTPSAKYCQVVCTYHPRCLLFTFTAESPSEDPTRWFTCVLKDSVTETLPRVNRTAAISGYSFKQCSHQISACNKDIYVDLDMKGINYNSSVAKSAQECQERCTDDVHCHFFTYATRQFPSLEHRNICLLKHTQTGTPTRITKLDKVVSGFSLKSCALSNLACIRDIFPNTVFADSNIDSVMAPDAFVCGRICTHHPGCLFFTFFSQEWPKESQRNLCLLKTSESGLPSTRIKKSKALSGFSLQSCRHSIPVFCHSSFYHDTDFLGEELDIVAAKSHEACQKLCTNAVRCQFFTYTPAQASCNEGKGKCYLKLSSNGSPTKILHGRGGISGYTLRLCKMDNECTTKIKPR
- Sequence (P03951 388-625 limits assumed): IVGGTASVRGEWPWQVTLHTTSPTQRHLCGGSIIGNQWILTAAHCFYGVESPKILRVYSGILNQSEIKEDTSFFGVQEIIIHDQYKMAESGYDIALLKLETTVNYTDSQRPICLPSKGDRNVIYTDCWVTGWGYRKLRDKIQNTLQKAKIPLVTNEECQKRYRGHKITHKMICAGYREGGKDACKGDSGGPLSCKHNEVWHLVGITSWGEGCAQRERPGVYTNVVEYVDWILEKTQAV
measure: IC50

Simply: COCc1nn(Cc2ccc(Cn3ccccc3=O)cc2)cc1C(=O)NCc1nccc(OC)c1F , UniProtKB P03951, IC50 = > 40 µM

====

- test.protocol: Kinetic solubility of the compound in aqueous assay buffer at pH 7.7
For each entry below, report its solubility kinetic value.

The value of solubility kinetic measured for the compound COCc1nn(Cc2ccc(Cn3ccccc3=O)cc2)cc1C(=O)NCc1cccc(OC)c1F turned out to be > 120 µg/mL

// solubility kinetic value for CCc1cccc(CNC(=O)c2cn(Cc3ccc(Cn4ccccc4=O)cc3)nc2COC)c1F : > 120 µg/mL

Recorded solubility kinetic (compound COCc1nn(Cc2ccc(Cn3ccccc3=O)cc2)cc1C(=O)NCc1cccc(O)c1F ): > 120 µg/mL

The recorded solubility kinetic for COc1cccc(CNC(=O)c2cn(Cc3ccc(Cn4ccccc4=O)cc3)nc2C2CC2)c1F is 58 µg/mL
